target_of_assay: pooled human IgG
quantity: Enzyme Activity Endpoint Assay (purified): Fab′2
The reply should consist of the numeric value with the unit placed after it.

Known Enzyme Activity Endpoint Assay (purified): Fab′2 results, listed for orientation:
protein	reported
PRT-627 (protein) MQITSVWTKGVTPLTPEQFRYNNEDVIHAPYLAHQGWYDITKAFDGKDNLLCGAATAGNMLHWWFDQNKEEIEAYLKKYGETQKIIFNNQELFDLKAAIDTKDSQTNSQLFNYFRDKAFPNLSARQLGVMPDLVLDMFINGYYLNVFKTQSTDVNRPYQDKDKRGGIFDAVFTRGDQTTLLTARHDLKNKGLNDISTIIKQELTEGRALALSHTYANVSISHVINLWGADFNAEGNLEAIYVTDSDANASIGMKKYFVGINAHGHVAISAKKIEGENIGAQVLGLFTLSSGKDIWQKLSLEHHHHHH	767 ng/µL
PRT-57 (protein) MANQEIRYSEVTPYHVTSVWTKGVTPPANFTQGEDVFHAPYVANQGWYDINKTFNGKDDLLCGAATAGNMLHWWFDQNKDYIDRYLEEHPEKQKINFNGEQMFDVKEAIDTKNHQLDSKLFEYFKEKAFPYLSTKHLGVFPDLVIDMFINGYRLSLTNHGPTPVKEGSKDPRGGFFDAVFGRGDQSKLLTSRHDFKEKNLKEISDLIKKELTEGKALGLSHTYANVRINHVINLWGADFDSNGNLKAIYVTDSDSNASIGMKKYFVGVNSAGKVAISAKEIKEDNIGAQVLGLFTLSTGQDSWNQTN	0 ng/µL

Proceeding to the next protein to report its Enzyme Activity Endpoint Assay (purified): Fab′2.
// Enzyme Activity Endpoint Assay (purified): Fab′2 lookup, protein = PRT-655 (protein) MQITSVWTKGVTPLTPEQFRYNNEDVIHAPYLAHQGWYDITKAFDGKDNLLCGAATAGNMLHWWFDQNKTEIEAYLSKHPEKQKIIFNNQELFDLKAAIDTKDSQTNSQLFNYFRDKAFPNLSARQLGVMPDLVLDMFINGYYLNVFKTQSTDVNRPYQDKDKRGGIFDAVFTRGDQTTLLTARHDLKNKGLNDISTIIKQELTEGRALALSHKTGNGGSSHVINLWGADFNAEGNLEAIYVTDSDANASIGMKKYFVGINAHGHVAISAKKIEGEDVGAQVLGLFTLSSGKDIWQKLSLEHHHHHH , result: 471 ng/µL
